Experimental target: MMP-9 (92 kDa, gelatinase B; type IV collagenase) (Homo sapiens, UniProt P14780)
Construct: endogenous in cells; enzyme purified from the conditioned medium
Sequence (P14780 107-707 limits assumed): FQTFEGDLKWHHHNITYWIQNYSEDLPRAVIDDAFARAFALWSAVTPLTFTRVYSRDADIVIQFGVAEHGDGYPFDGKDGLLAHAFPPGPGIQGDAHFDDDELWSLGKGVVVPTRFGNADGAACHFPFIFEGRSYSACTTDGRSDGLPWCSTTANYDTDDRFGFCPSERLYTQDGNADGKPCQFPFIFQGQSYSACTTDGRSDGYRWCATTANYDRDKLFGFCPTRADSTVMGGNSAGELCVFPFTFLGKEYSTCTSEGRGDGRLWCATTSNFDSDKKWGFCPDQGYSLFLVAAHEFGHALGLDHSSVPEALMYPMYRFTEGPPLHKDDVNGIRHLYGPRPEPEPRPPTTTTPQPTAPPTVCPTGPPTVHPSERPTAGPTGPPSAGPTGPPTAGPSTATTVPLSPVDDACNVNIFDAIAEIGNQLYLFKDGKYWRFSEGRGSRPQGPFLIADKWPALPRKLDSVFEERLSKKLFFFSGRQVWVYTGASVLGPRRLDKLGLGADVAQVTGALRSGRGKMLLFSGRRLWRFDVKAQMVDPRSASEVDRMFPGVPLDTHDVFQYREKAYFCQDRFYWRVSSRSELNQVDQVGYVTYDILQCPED
Experiment notes: Assay of type IV collagenase inhibitors: activated MMP-9 with type IV collagenase activity kit substrate, fluorescent intensity
Type: biochemical
Stated conditions: activated MMP-9, type IV collagenase activity kit substrate, fluorescent intensity; concentration at which percent inhibition reaches 50%
Exercise: for every item that follows, state its recorded pIC50.
pIC50 is a log-scale quantity: -log10 of the concentration expressed in molar.

Exercise: Data request, read-out pIC50, for O=C(NO)[C@@H](Cc1ccccc1)NS(=O)(=O)c1ccc([N+](=O)[O-])cc1
Solution: 5.52

Exercise: Data request, read-out pIC50, for Cc1ccc2[nH]cc(CC(NS(=O)(=O)c3ccc(-c4ccccc4)cc3)C(=O)NO)c2c1 (racemic)
Solution: 7.69

Exercise: Data request, read-out pIC50, for CC(C)[C@@H](NS(=O)(=O)c1ccc(Oc2ccccc2)cc1)C(=O)NO
Solution: 9.41

Exercise: Data request, read-out pIC50, for O=C(NO)[C@@H](Cc1ccccc1)NS(=O)(=O)c1ccc(C(F)(F)F)cc1
Solution: 5.68

Exercise: Data request, read-out pIC50, for Cc1ccc2[nH]cc(CC(NS(=O)(=O)c3ccc(Oc4ccccc4)cc3)C(=O)O)c2c1 (racemic)
Solution: 6.54

* * *

Experimental target: MMP-9 (92 kDa, gelatinase B; type IV collagenase) (Homo sapiens)
Construct: endogenous in cells; enzyme purified from the conditioned medium
Experiment notes: Assay of type IV collagenase inhibitors: activated MMP-9 with type IV collagenase activity kit substrate, fluorescent intensity
Assay type: biochemical
Stated conditions: activated MMP-9, type IV collagenase activity kit substrate, fluorescent intensity; concentration at which percent inhibition reaches 50%
Exercise: for every item that follows, state its recorded pIC50.
pIC50 is a log-scale quantity: -log10 of the concentration expressed in molar.

Exercise: Data request, read-out pIC50, for O=C(NO)[C@@H](Cc1ccccc1)NS(=O)(=O)c1ccc(Oc2ccccc2)cc1 [Example 1b-1-60]
Solution: 8.92

Exercise: Data request, read-out pIC50, for COc1ccc(-c2ccc(S(=O)(=O)N[C@H](Cc3ccccc3)C(=O)O)cc2)cc1 [Example 1a-1-50]
Solution: 6.26

Exercise: Data request, read-out pIC50, for O=C(NO)[C@@H](Cc1ccccc1)NS(=O)(=O)c1ccc(-c2ccccc2)cc1 [Example 1b-1-1]
Solution: 7.52

Exercise: Data request, read-out pIC50, for O=C(O)[C@@H](Cc1c[nH]c2ccccc12)NS(=O)(=O)c1ccc(-c2ccc(F)cc2)cc1 [Example 1a-1-41]
Solution: 6.51

Exercise: Data request, read-out pIC50, for O=C(O)C(Cc1c[nH]c2ccc(F)cc12)NS(=O)(=O)c1ccc(-c2ccccc2)cc1 (racemic) [Example 1a-1-18]
Solution: 6.30

Exercise: Data request, read-out pIC50, for CC(C)[C@@H](NS(=O)(=O)c1ccc(-c2ccc(C(F)(F)F)cc2)cc1)C(=O)O [Example 1a-1-46]
Solution: 5.95

Exercise: Data request, read-out pIC50, for O=C(NO)[C@H](Cc1c[nH]c2ccccc12)NS(=O)(=O)c1ccc(Oc2ccccc2)cc1 [Example 1b-1-62]
Solution: 5.46

Exercise: Data request, read-out pIC50, for CC(C)[C@@H](NS(=O)(=O)c1ccc(-c2ccc(C(C)(C)C)cc2)cc1)C(=O)O [Example 1a-1-44]
Solution: 5.72

Exercise: Data request, read-out pIC50, for O=C(O)[C@@H](Cc1ccccc1)NS(=O)(=O)c1ccc(Oc2ccccc2)cc1 [Example 1a-1-60]
Solution: 5.88

Exercise: Data request, read-out pIC50, for O=C(NO)[C@@H](Cc1c[nH]c2ccccc12)NS(=O)(=O)c1ccc(-c2ccccc2)cc1 [Example 1b-1-33]
Solution: 8.30

Exercise: Data request, read-out pIC50, for CC(C)[C@@H](NS(=O)(=O)c1ccc(-c2ccc(-c3ccccc3)cc2)cc1)C(=O)O [Example 1a-1-45]
Solution: 7.40

Exercise: Data request, read-out pIC50, for O=C(O)[C@@H](Cc1c[nH]c2ccccc12)NS(=O)(=O)c1ccc(Oc2ccccc2)cc1 [Example 1a-1-61]
Solution: 6.61

Exercise: Data request, read-out pIC50, for CSc1ccc(-c2ccc(S(=O)(=O)N[C@H](Cc3ccccc3)C(=O)O)cc2)cc1 [Example 1a-1-54]
Solution: 7.12

Exercise: Data request, read-out pIC50, for O=C(O)[C@@H](Cc1ccccc1)NS(=O)(=O)c1ccc(-c2ccccc2)cc1 [Example 1a-1-1]
Solution: 6.62

Exercise: Data request, read-out pIC50, for CC(C)[C@@H](NS(=O)(=O)c1ccc(-c2ccccc2)cc1)C(=O)O [Example 1a-1-43]
Solution: 6.20

Exercise: Data request, read-out pIC50, for O=C(NO)C(Cc1cscn1)NS(=O)(=O)c1ccc(-c2ccccc2)cc1 (racemic) [Example 1b-1-2]
Solution: 7.40

* * *

Experimental target: MMP-9 (92 kDa, gelatinase B; type IV collagenase) (Homo sapiens, UniProt P14780)
Construct: endogenous in cells; enzyme purified from the conditioned medium
Experiment notes: Assay of type IV collagenase inhibitors: activated MMP-9 with type IV collagenase activity kit substrate, fluorescent intensity
Type: biochemical
Readout kind: pIC50
pIC50 is a log-scale quantity: -log10 of the concentration expressed in molar.

Exercise: Data request, read-out pIC50, for Cc1ccc(-n2nnc(-c3ccc(S(=O)(=O)N[C@H](Cc4c[nH]c5ccccc45)C(=O)O)cc3)n2)cc1
Solution: 7.88

Exercise: Data request, read-out pIC50, for CC(C)C[C@H](C(=O)O)N(C)S(=O)(=O)c1ccc(-c2nnn(-c3ccccc3)n2)cc1
Solution: 6.11

Exercise: Data request, read-out pIC50, for CC(C)[C@@H](NS(=O)(=O)c1ccc(NC(=O)c2ccccc2)cc1)C(=O)O
Solution: 5.69

Exercise: Data request, read-out pIC50, for Cc1ccc(C(=O)Nc2ccc(S(=O)(=O)N[C@@H](C(=O)O)C(C)C)cc2)cc1
Solution: 7.24

Exercise: Data request, read-out pIC50, for Nc1ccc(C(=O)Nc2ccc(S(=O)(=O)N[C@H](Cc3c[nH]c4ccccc34)C(=O)O)cc2)cc1
Solution: 5.63

Exercise: Data request, read-out pIC50, for CC(C)[C@@H](NS(=O)(=O)c1ccc(NC(=O)c2ccc([N+](=O)[O-])cc2)cc1)C(=O)O
Solution: 6.60

Exercise: Data request, read-out pIC50, for CCC(C)[C@@H](NS(=O)(=O)c1ccc(-c2nnn(-c3ccccc3)n2)cc1)C(=O)O (some centres unmarked)
Solution: 6.50

Exercise: Data request, read-out pIC50, for CSc1ccc(-n2nnc(-c3ccc(S(=O)(=O)N[C@H](Cc4c[nH]c5ccccc45)C(=O)O)cc3)n2)cc1
Solution: 8.46

Exercise: Data request, read-out pIC50, for O=C(O)C(Cc1cccc2ccccc12)NS(=O)(=O)c1ccc(-c2nnn(-c3ccccc3)n2)cc1 (centres unmarked)
Solution: 6.13

Exercise: Data request, read-out pIC50, for O=C(O)[C@@H](Cc1ccccc1)N(Cc1ccccc1)S(=O)(=O)c1ccc(-c2nnn(-c3ccccc3)n2)cc1
Solution: 6.04

Exercise: Data request, read-out pIC50, for COc1ccc(C(=O)Nc2ccc(S(=O)(=O)N[C@H](Cc3c[nH]c4ccccc34)C(=O)O)cc2)cc1
Solution: 7.60

Exercise: Data request, read-out pIC50, for O=C(O)[C@@H](Cc1ccccc1)NS(=O)(=O)c1ccc(-c2nnn(-c3ccc(Cl)cc3)n2)cc1
Solution: 6.84

Exercise: Data request, read-out pIC50, for CC(C)(C)c1ccc(-n2nnc(-c3ccc(S(=O)(=O)N[C@H](Cc4ccccc4)C(=O)O)cc3)n2)cc1
Solution: 6.52

Exercise: Data request, read-out pIC50, for O=C(O)C(Cc1c[nH]c2ccc(F)cc12)NS(=O)(=O)c1ccc(-c2nnn(-c3ccccc3)n2)cc1 (centres unmarked)
Solution: 6.89

Exercise: Data request, read-out pIC50, for O=C(O)[C@@H](Cc1ccccc1)NS(=O)(=O)c1ccc(-c2nnn(-c3ccc(Oc4ccccc4)cc3)n2)cc1
Solution: 5.55

Exercise: Data request, read-out pIC50, for O=C(Nc1ccc(S(=O)(=O)N[C@H](Cc2c[nH]c3ccccc23)C(=O)O)cc1)c1ccc(F)cc1
Solution: 7.37

Exercise: Data request, read-out pIC50, for CN(C)c1ccc(C(=O)Nc2ccc(S(=O)(=O)N[C@H](Cc3c[nH]c4ccccc34)C(=O)O)cc2)cc1
Solution: 7.27

Exercise: Data request, read-out pIC50, for CSc1ccc(-n2nnc(-c3ccc(S(=O)(=O)N[C@H](Cc4ccccc4)C(=O)O)cc3)n2)cc1
Solution: 7.97

Exercise: Data request, read-out pIC50, for Cn1cc(CC(NS(=O)(=O)c2ccc(-c3nnn(-c4ccccc4)n3)cc2)C(=O)O)c2ccccc21 (centres unmarked)
Solution: 6.41

Exercise: Data request, read-out pIC50, for CC(C)[C@H](C(=O)O)N(C)S(=O)(=O)c1ccc(-c2nnn(-c3ccccc3)n2)cc1
Solution: 6.22

Exercise: Data request, read-out pIC50, for CC(C)[C@H](C(=O)NO)N(Cc1ccccc1)S(=O)(=O)c1ccc(Oc2ccccc2)cc1
Solution: 9.20

Exercise: Data request, read-out pIC50, for CC(C)[C@@H](NS(=O)(=O)c1ccc(-c2nnn(-c3ccc(F)cc3)n2)cc1)C(=O)O
Solution: 7.28

Exercise: Data request, read-out pIC50, for O=C(O)[C@@H](Cc1ccccc1)NS(=O)(=O)c1ccc(-c2nnn(-c3ccc(O)cc3)n2)cc1
Solution: 6.61

Exercise: Data request, read-out pIC50, for CC(C)[C@@H](NS(=O)(=O)c1ccc(NC(=O)c2ccc(Br)cc2)cc1)C(=O)O
Solution: 7.94

Exercise: Data request, read-out pIC50, for COc1ccc(-n2nnc(-c3ccc(S(=O)(=O)N[C@H](Cc4ccccc4)C(=O)O)cc3)n2)cc1
Solution: 6.82

Exercise: Data request, read-out pIC50, for O=C(Nc1ccc(S(=O)(=O)N[C@H](Cc2ccccc2)C(=O)O)cc1)c1ccc([N+](=O)[O-])cc1
Solution: 6.75

Exercise: Data request, read-out pIC50, for Cc1ccc(C(=O)Nc2ccc(S(=O)(=O)N[C@H](Cc3c[nH]c4ccccc34)C(=O)O)cc2)cc1
Solution: 8.23

Exercise: Data request, read-out pIC50, for CC(C)[C@@H](NS(=O)(=O)c1ccc(-c2nnn(-c3ccc(Br)cc3)n2)cc1)C(=O)O
Solution: 7.91

Exercise: Data request, read-out pIC50, for CCC(C)[C@@H](NS(=O)(=O)c1ccc(-c2nnn(-c3ccc(OC)cc3)n2)cc1)C(=O)O (some centres unmarked)
Solution: 7.11
